All values here come from patent US11981680B2.

biological target: human PAD4 (hPAD4) (Homo sapiens (Human)); assay: RFMS Human PAD4 Functional Assay; conditions: rapid-fire mass spectrum (RFMS) assay; 5 nM hPAD4 enzyme, 250 μM BAEE, 30 min preincubation at 37° C.
The entries below come with measured pIC50 values attached.
Answer as the number alone; pIC50 is minus log10 of concentration in mol/L.

| compound | test-system | pIC50 |
| --- | --- | --- |
| COc1cc(C(=O)N2C[C@H]3CC[C@@H]2[C@@H]3N)cc2nc(-c3cc4scc(CCCO)c4n3CC3CC3)n(C)c12 [Example 14] | human PAD4 (hPAD4) (Homo sapiens (Human)) | 7.25 |
| COc1cc(C(=O)N2C[C@H]3CC[C@@H]2[C@@H]3N)cc2nc(-c3cc4scc(C5CCN(C(C)=O)CC5)c4n3CC3CC3)n(C)c12 [Example 4] | human PAD4 (hPAD4) (Homo sapiens (Human)) | 7.85 |
| COc1cc(C(=O)N2C[C@H]3CC[C@@H]2[C@@H]3N)cc2nc(-c3cc4scc(-c5ccc(O)c(F)c5)c4n3CC3CC3)n(C)c12 [Example 36] | human PAD4 (hPAD4) (Homo sapiens (Human)) | 7.23 |
| COc1cc(C(=O)N2C[C@H]3CC[C@@H]2[C@@H]3N)cc2nc(-c3cc4scc(-c5cnn(C6CCOCC6)c5)c4n3CC3CC3)n(C)c12 [Example 48] | human PAD4 (hPAD4) (Homo sapiens (Human)) | 7.54 |
| COc1cc(C(=O)N2C[C@H]3CC[C@@H]2[C@@H]3N)cc2nc(-c3cc4scc(-c5cnn(CC(F)F)c5)c4n3CC3CC3)n(C)c12 [Example 43] | human PAD4 (hPAD4) (Homo sapiens (Human)) | 7.29 |
| COc1cc(C(=O)N2C[C@H]3CC[C@@H]2[C@@H]3N)cc2nc(-c3cc4sccc4n3CC3CC3)n(C)c12 [Example 29] | human PAD4 (hPAD4) (Homo sapiens (Human)) | 7.08 |

Please report the recorded pIC50 for COc1cc(C(=O)N2C[C@H]3CC[C@@H]2[C@@H]3N)cc2nc(-c3cc4scc(-c5ccnn5C)c4n3CC3CC3)n(C)c12 [Example 45] .
7.28

For COc1cc(C(=O)N2C[C@H]3CC[C@@H]2[C@@H]3N)cc2nc(-c3cc4scc(C5CCOC5)c4n3CC3CC3)n(C)c12 (stereo partly drawn) [Example 12] then?
7.31

For COc1cc(C(=O)N2C[C@H]3CC[C@@H]2[C@@H]3N)cc2nc(-c3cc4scc(-c5cccn5C)c4n3CC3CC3)n(C)c12 [Example 44] then?
6.95

----------
target: human PAD4 (hPAD4) (Homo sapiens (Human)); assay: RFMS Human PAD4 Functional Assay; conditions: rapid-fire mass spectrum (RFMS) assay; 5 nM hPAD4 enzyme, 250 μM BAEE, 30 min preincubation at 37° C.
# note: boundary value 60 nM maps to false (0); IC50 below it maps to true (1)

Worked set:
| molecule | group-label |
| --- | --- |
| COc1cc(C(=O)N2C[C@H]3CC[C@@H]2[C@@H]3N)cc2nc(-c3cc4scc(CCC(C)(C)O)c4n3CC3CC3)n(C)c12 [Example 6] | true (1) |
| COc1cc(C(=O)N2C[C@H]3CC[C@@H]2[C@@H]3N)cc2nc(-c3cc4scc(C5CCCNC5)c4n3CC3CC3)n(C)c12 (single isomer, unassigned) [Example 17] | false (0) |
| COc1cc(C(=O)N2C[C@H]3CC[C@@H]2[C@@H]3N)cc2nc(-c3cc4scc(C5CCNCC5)c4n3CC3CC3)n(C)c12 [Example 3] | true (1) |
| COc1cc(C(=O)N2C[C@H]3CC[C@@H]2[C@@H]3N)cc2nc(-c3cc4scc(C5CC(O)C5)c4n3CC3CC3)n(C)c12 (mixture of isomers) [Example 7] | true (1) |
| COc1cc(C(=O)N2C[C@H]3CC[C@@H]2[C@@H]3N)cc2nc(-c3cc4scc(C5CC(O)C5)c4n3CC3CC3)n(C)c12 (single isomer, unassigned) [Example 22] | false (0) |
| COc1cc(C(=O)N2C[C@H]3CC[C@@H]2[C@@H]3N)cc2nc(-c3cc4sc(C)cc4n3CC3CC3)n(C)c12 [Example 27] | false (0) |
| COc1cc(C(=O)N2C[C@H]3CC[C@@H]2[C@@H]3N)cc2nc(-c3cc4scc(CC(CN)CCl)c4n3CC3CC3)n(C)c12 (stereo partly drawn) [Example 19] | false (0) |
| COc1cc(C(=O)N2C[C@H]3CC[C@@H]2[C@@H]3N)cc2nc(-c3cc4sc(-c5ccncc5)cc4n3CC3CC3)n(C)c12 [Example 25] | false (0) |

Proceed to the following item.
Lab note: confirm whether the reported IC50 for this molecule is below 60 nM, equality not counting. molecule: COc1cc(C(=O)N2C[C@H]3CC[C@@H]2[C@@H]3N)cc2nc(-c3cc4scc(Nc5ccncc5)c4n3CC3CC3)n(C)c12 [Example 49]
false (0)

----------
molecular target: human PAD4 (hPAD4) (Homo sapiens (Human), UniProt Q9UM07); assay: RFMS Human PAD4 Functional Assay; conditions: rapid-fire mass spectrum (RFMS) assay; 5 nM hPAD4 enzyme, 250 μM BAEE, 30 min preincubation at 37° C.
Sequence (Q9UM07 whole entry): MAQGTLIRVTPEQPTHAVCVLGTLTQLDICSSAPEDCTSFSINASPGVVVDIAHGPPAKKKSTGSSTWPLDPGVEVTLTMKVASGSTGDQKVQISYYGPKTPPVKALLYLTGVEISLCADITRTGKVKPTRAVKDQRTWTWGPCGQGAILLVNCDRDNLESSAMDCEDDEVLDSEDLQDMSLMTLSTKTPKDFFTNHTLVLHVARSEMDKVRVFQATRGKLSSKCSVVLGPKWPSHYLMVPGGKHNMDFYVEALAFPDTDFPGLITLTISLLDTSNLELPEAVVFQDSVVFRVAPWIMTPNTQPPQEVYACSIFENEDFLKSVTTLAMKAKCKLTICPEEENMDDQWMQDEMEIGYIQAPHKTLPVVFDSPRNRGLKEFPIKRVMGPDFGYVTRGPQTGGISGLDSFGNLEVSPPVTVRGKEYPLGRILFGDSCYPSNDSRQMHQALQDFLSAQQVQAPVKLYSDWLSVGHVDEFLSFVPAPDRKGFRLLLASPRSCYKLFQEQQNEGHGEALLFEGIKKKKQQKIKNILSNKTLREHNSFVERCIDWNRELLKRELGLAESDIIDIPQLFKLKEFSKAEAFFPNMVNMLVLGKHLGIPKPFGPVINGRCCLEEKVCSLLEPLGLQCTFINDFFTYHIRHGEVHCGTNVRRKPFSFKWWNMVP
The entries below come with measured IC50 values attached.
Respond with a number, then the unit of measure.

Worked set:
| chemical-smiles | test-system | IC50 |
| --- | --- | --- |
| COc1cc(C(=O)N2C[C@H](N)C[C@@H](F)C2)cc2nc(-c3cc4sc(C)cc4n3CC3CC3)n(C)c12 | human PAD4 (hPAD4) (Homo sapiens (Human), UniProt Q9UM07) | 67 nM |
| COc1cc(C(=O)N2C[C@H]3CC[C@@H]2[C@@H]3N)cc2nc(-c3cc4scc(-c5cccs5)c4n3CC3CC3)n(C)c12 | human PAD4 (hPAD4) (Homo sapiens (Human), UniProt Q9UM07) | 100 nM |
| COc1cc(C(=O)N2C[C@H]3CC[C@@H]2[C@@H]3N)cc2nc(-c3cc4scc(CCN5CCOC5=O)c4n3CC3CC3)n(C)c12 | human PAD4 (hPAD4) (Homo sapiens (Human), UniProt Q9UM07) | 54 nM |
| COc1cc(C(=O)N2C[C@H]3CC[C@@H]2[C@@H]3N)cc2nc(-c3cc4sc(-c5cn[nH]c5)cc4n3CC3CC3)n(C)c12 | human PAD4 (hPAD4) (Homo sapiens (Human), UniProt Q9UM07) | 107 nM |
| COc1cc(C(=O)N2C[C@H]3CC[C@@H]2[C@@H]3N)cc2nc(-c3cc4scc(-c5ccn(C)n5)c4n3CC3CC3)n(C)c12 | human PAD4 (hPAD4) (Homo sapiens (Human), UniProt Q9UM07) | 54 nM |
| COc1cc(C(=O)N2C[C@H](N)C[C@@H](F)C2)cc2nc(-c3cc4sccc4n3CC3CC3)n(C)c12 | human PAD4 (hPAD4) (Homo sapiens (Human), UniProt Q9UM07) | 86 nM |

Please report the recorded IC50 for `COc1cc(C(=O)N2C[C@H]3CC[C@@H]2[C@@H]3N)cc2nc(-c3cc4scc(-c5cc[nH]n5)c4n3CC3CC3)n(C)c12` .
24 nM

For `COc1cc(C(=O)N2C[C@H](N)C[C@@H](F)C2)cc2nc(-c3cc4scc(-c5cnn(C)c5)c4n3CC3CC3)n(C)c12` then?
50 nM

For `COc1cc(C(=O)N2C[C@H]3CC[C@@H]2[C@@H]3N)cc2nc(-c3cc4scc(C5CCOCC5)c4n3CC3CC3)n(C)c12` then?
40 nM

For `COc1cc(C(=O)N2C[C@H]3CC[C@@H]2[C@@H]3N)cc2nc(-c3cc4scc(-c5ccn(C(C)C)n5)c4n3CC3CC3)n(C)c12` then?
48 nM

For `COc1cc(C(=O)N2C[C@H]3CC[C@@H]2[C@@H]3N)cc2nc(-c3cc4scc(C5CC6(CNC6)C5)c4n3CC3CC3)n(C)c12` then?
36 nM

For `COc1cc(C(=O)N2C[C@H]3CC[C@@H]2[C@@H]3N)cc2nc(-c3cc4scc(-c5cnn(C)c5)c4n3CC3CC3)n(C)c12` then?
17 nM

For `COc1cc(C(=O)N2C[C@H]3CC[C@@H]2[C@@H]3N)cc2nc(-c3cc4sc(Br)cc4n3CC3CC3)n(C)c12` then?
41 nM

----------
biological target: human PAD4 (hPAD4) (Homo sapiens (Human), UniProt Q9UM07); experiment: RFMS Human PAD4 Functional Assay; settings: rapid-fire mass spectrum (RFMS) assay; 5 nM hPAD4 enzyme, 250 μM BAEE, 30 min preincubation at 37° C.
The entries below come with measured IC50 values attached.
Unit nM implied. Number only.

| compound | IC50 (nM) |
| --- | --- |
| COc1cc(C(=O)N2C[C@H]3CC[C@@H]2[C@@H]3N)cc2nc(-c3cc4scc(C5CCCNC5)c4n3CC3CC3)n(C)c12 (single isomer, unassigned) [Example 9] | 40 |
| COc1cc(C(=O)N2C[C@H]3CC[C@@H]2[C@@H]3N)cc2nc(-c3cc4scc(C5CN(C(C)=O)C5)c4n3CC3CC3)n(C)c12 | 55 |
| COc1cc(C(=O)N2C[C@H]3CC[C@@H]2[C@@H]3N)cc2nc(-c3cc4scc(C5COC5)c4n3CC3CC3)n(C)c12 | 63 |
| COc1cc(C(=O)N2C[C@H]3CC[C@@H]2[C@@H]3N)cc2nc(-c3cc4scc(C5CC(O)C5)c4n3CC3CC3)n(C)c12 (single isomer, unassigned) [Example 21] | 38 |

Please report the recorded IC50 for COc1cc(C(=O)N2C[C@H]3CC[C@@H]2[C@@H]3N)cc2nc(-c3cc4scc(C5CCC(O)CC5)c4n3CC3CC3)n(C)c12 (mixture of isomers) .
46
